# Tested on: DRAK1;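 also: KINOMEscan kinase panel screen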
# Construct: gene STK17A
# condition_notes: concentration: 1 μM, replicates: in singlicate; n = 1
value_kind: %Inh

C[C@@H]1CC[C@@H](C(=O)Nc2ccccc2)CN1c1cc(-c2ccc3c(N)n[nH]c3c2)nc(N)n1	18%
COc1cc(Nc2nccc(-c3c(-c4cccc(NC(=O)c5c(F)cccc5F)c4)nn4ncccc34)n2)cc(OC)c1OC	0%
Cc1ccc(C)c(NC(=O)NC2CCN(c3ccnc(Nc4ccc(F)cc4)n3)C2)c1 (centres unmarked)	10%
Cc1cccc(Nc2nc(N[C@H]3CCNC3)ncc2C(N)=O)c1.Cl	53%
Nc1n[nH]c2cnc(-c3ccccc3)cc12	44%
Cl.c1ccc(-c2ccc3c(Nc4ccc5[nH]ccc5c4)ccnc3c2)nc1	0%
COC(=O)Nc1nc2cc(Oc3ccc(NC(=O)Nc4cc(C(F)(F)F)ccc4F)cn3)ccc2[nH]1.Cl.Cl	16%
c1ccc(-c2cnc3nccnn23)cc1	0%
